Data provenance: ChEMBL document CHEMBL5331051

MHC values by entry
Test system: Erythrocyte
Assay: Hemolytic activity in sheep RBC assessed as minimal hemolytic concentration causing 10% hemolysis incubated for 1 hr by ELISA
Format: toxicity, cell-based, Ovis aries

// solved cases for MHC follow
{"compound": "N=C(N)NCCCCNc1nc(NCCCCN)nc(N2CCN(c3nc(NCCCCN)nc(NCCCCN)n3)CC2Cc2ccccc2)n1 (stereo not drawn)", "MHC": "> 355.8 µM"}
{"compound": "NCCNc1nc(NCCN)nc(N2CCN(c3nc(NCCN)nc(NCCN)n3)C(Cc3ccccc3)C2)n1 (stereo not drawn)", "MHC": "> 451.1 µM"}

Then there is this compound:
Recorded MHC of NCCN(CCN)c1nc(NCc2ccccc2)nc(N2CC(Cc3ccccc3)N(c3nc(NCc4ccccc4)nc(N(CCN)CCN)n3)CC2Cc2ccccc2)n1 (stereo not drawn) , please.
> 342.5 µM
